Test system: Plutella xylostella
experiment-notes: Insecticidal activity against second-instar larval stage of Plutella xylostella (diamondback moth) in cabbage leaves assessed as mortality at 2.5 mg/l at 25 +/-1 degC treated for 3 secs before larva infestation measured after 2 days by leaf-dip method
Assay type: functional
measurement-parameters: 48 h
metric: mortality at 2.5 µg/mL (%)

| molecule | metric | scale-unit | result-number |
| --- | --- | --- | --- |
| CNC(=O)c1cc(C(=O)Nc2c(C)cc(Cl)cc2C(=O)NC(C)(C)C)n(-c2ncccc2Cl)n1 | mortality at 2.5 µg/mL | % | 100 |
| CNC(=O)c1cc(Cl)cc(C)c1NC(=O)c1cc(COC(C)=O)nn1-c1ncccc1Cl | mortality at 2.5 µg/mL | % | 45 |
| CNC(=O)c1cc(Cl)cc(C)c1NC(=O)c1cc(Br)nn1-c1ncccc1Cl [CHLORANTRANILIPROLE] | mortality at 2.5 µg/mL | % | 100 |
| CC(=O)OCc1cc(C(=O)Nc2c(C)cc(Cl)cc2C(=O)NC(C)C)n(-c2ncccc2Cl)n1 | mortality at 2.5 µg/mL | % | 60 |
| CNC(=O)c1cc(Cl)cc(C)c1NC(=O)c1cc(CNC(=O)C(F)(F)F)nn1-c1ncccc1Cl | mortality at 2.5 µg/mL | % | 100 |
| CC(=O)OCc1cc(C(=O)Nc2c(C)cc(Cl)cc2C(=O)NC(C)(C)C)n(-c2ncccc2Cl)n1 | mortality at 2.5 µg/mL | % | 95 |
| CC(=O)OCc1cc(C(=O)Nc2c(C)cc(Cl)cc2C(=O)NC2CC2)n(-c2ncccc2Cl)n1 | mortality at 2.5 µg/mL | % | 90 |
| CNC(=O)c1cc(Cl)cc(C)c1NC(=O)c1cc(CN=[N+]=[N-])nn1-c1ncccc1Cl | mortality at 2.5 µg/mL | % | 100 |

---

Test system: Plutella xylostella
experiment-notes: Insecticidal activity against second-instar larval stage of Plutella xylostella (diamondback moth) in cabbage leaves assessed as mortality at 0.25 mg/l at 25 +/-1 degC treated for 3 secs before larva infestation measured after 2 days by leaf-dip method
Type: functional
measurement-parameters: 48 h
metric: mortality at 0.25 µg/mL (%)

| chemical-string | result-number |
| --- | --- |
| CNC(=O)c1cc(Cl)cc(C)c1NC(=O)c1cc(CNC(=O)C(F)(F)F)nn1-c1ncccc1Cl | 0 |
| CNC(=O)c1cc(Cl)cc(C)c1NC(=O)c1cc(Br)nn1-c1ncccc1Cl | 100 |
| CC(=O)OCc1cc(C(=O)Nc2c(C)cc(Cl)cc2C(=O)NC2CC2)n(-c2ncccc2Cl)n1 | 0 |
| CNC(=O)c1cc(C(=O)Nc2c(C)cc(Cl)cc2C(=O)NC(C)(C)C)n(-c2ncccc2Cl)n1 | 30 |
| CC(=O)OCc1cc(C(=O)Nc2c(C)cc(Cl)cc2C(=O)NC(C)(C)C)n(-c2ncccc2Cl)n1 | 25 |
| CNC(=O)c1cc(Cl)cc(C)c1NC(=O)c1cc(CN=[N+]=[N-])nn1-c1ncccc1Cl | 75 |

---

System: Plutella xylostella
experiment-notes: Insecticidal activity against second-instar larval stage of Plutella xylostella (diamondback moth) in cabbage leaves assessed as mortality at 0.125 mg/l at 25 +/-1 degC treated for 3 secs before larva infestation measured after 2 days by leaf-dip method
Format: functional
measurement-parameters: 48 h
Reported mortality at 0.125 µg/mL values follow for various compounds

| chemical-string | experimental-system | mortality at 0.125 µg/mL / % |
| --- | --- | --- |
| CNC(=O)c1cc(Cl)cc(C)c1NC(=O)c1cc(Br)nn1-c1ncccc1Cl | Plutella xylostella | 100 |
| CC(=O)OCc1cc(C(=O)Nc2c(C)cc(Cl)cc2C(=O)NC(C)(C)C)n(-c2ncccc2Cl)n1 | Plutella xylostella | 0 |
| CNC(=O)c1cc(C(=O)Nc2c(C)cc(Cl)cc2C(=O)NC(C)(C)C)n(-c2ncccc2Cl)n1 | Plutella xylostella | 0 |
| CNC(=O)c1cc(Cl)cc(C)c1NC(=O)c1cc(CN=[N+]=[N-])nn1-c1ncccc1Cl | Plutella xylostella | 45 |

---

System: Plutella xylostella
experiment-notes: Insecticidal activity against second-instar larval stage of Plutella xylostella (diamondback moth) in cabbage leaves assessed as mortality at 10 mg/l at 25 +/-1 degC treated for 3 secs before larva infestation measured after 2 days by leaf-dip method
Type: functional
measurement-parameters: 48 h
metric: mortality at 10 µg/mL (%)

| chemical-string | metric | result-number |
| --- | --- | --- |
| CNC(=O)c1cc(C(=O)Nc2c(C)cc(Cl)cc2C(=O)NC2CC2)n(-c2ncccc2Cl)n1 | mortality at 10 µg/mL | 0 |
| CC(=O)OCc1cc(C(=O)Nc2c(C)cc(Cl)cc2C(=O)NC(C)C)n(-c2ncccc2Cl)n1 | mortality at 10 µg/mL | 100 |
| CNC(=O)c1cc(Cl)cc(C)c1NC(=O)c1cc(CN=[N+]=[N-])nn1-c1ncccc1Cl | mortality at 10 µg/mL | 100 |
| CNC(=O)c1cc(Cl)cc(C)c1NC(=O)c1cc(CNC(=O)C(F)(F)F)nn1-c1ncccc1Cl | mortality at 10 µg/mL | 100 |
| CC(=O)OCc1cc(C(=O)Nc2c(C)cc(Cl)cc2C(=O)NC2CC2)n(-c2ncccc2Cl)n1 | mortality at 10 µg/mL | 100 |
| CC(=O)OCc1cc(C(=O)Nc2c(C)cccc2C(=O)NC(C)C)n(-c2ncccc2Cl)n1 | mortality at 10 µg/mL | 60 |
| CNC(=O)c1cc(Cl)cc(C)c1NC(=O)c1cc(COC(C)=O)nn1-c1ncccc1Cl | mortality at 10 µg/mL | 90 |
| CNC(=O)c1cc(C(=O)Nc2c(C)cc(Cl)cc2C(=O)NC(C)(C)C)n(-c2ncccc2Cl)n1 | mortality at 10 µg/mL | 100 |
| CC(=O)OCc1cc(C(=O)Nc2c(C)cc(Cl)cc2C(=O)NC(C)(C)C)n(-c2ncccc2Cl)n1 | mortality at 10 µg/mL | 100 |
| CNC(=O)c1cc(Cl)cc(C)c1NC(=O)c1cc(Br)nn1-c1ncccc1Cl | mortality at 10 µg/mL | 100 |
